This collection of values is drawn from paper PMC4336329.

experimental.target: human ether-à-go-go-related gene (hERG) potassium channel (human, UniProt Q12809);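 also: peak tail current of the secondary pulse compared with the same well before compound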
Sequence (Q12809 whole entry, looked up): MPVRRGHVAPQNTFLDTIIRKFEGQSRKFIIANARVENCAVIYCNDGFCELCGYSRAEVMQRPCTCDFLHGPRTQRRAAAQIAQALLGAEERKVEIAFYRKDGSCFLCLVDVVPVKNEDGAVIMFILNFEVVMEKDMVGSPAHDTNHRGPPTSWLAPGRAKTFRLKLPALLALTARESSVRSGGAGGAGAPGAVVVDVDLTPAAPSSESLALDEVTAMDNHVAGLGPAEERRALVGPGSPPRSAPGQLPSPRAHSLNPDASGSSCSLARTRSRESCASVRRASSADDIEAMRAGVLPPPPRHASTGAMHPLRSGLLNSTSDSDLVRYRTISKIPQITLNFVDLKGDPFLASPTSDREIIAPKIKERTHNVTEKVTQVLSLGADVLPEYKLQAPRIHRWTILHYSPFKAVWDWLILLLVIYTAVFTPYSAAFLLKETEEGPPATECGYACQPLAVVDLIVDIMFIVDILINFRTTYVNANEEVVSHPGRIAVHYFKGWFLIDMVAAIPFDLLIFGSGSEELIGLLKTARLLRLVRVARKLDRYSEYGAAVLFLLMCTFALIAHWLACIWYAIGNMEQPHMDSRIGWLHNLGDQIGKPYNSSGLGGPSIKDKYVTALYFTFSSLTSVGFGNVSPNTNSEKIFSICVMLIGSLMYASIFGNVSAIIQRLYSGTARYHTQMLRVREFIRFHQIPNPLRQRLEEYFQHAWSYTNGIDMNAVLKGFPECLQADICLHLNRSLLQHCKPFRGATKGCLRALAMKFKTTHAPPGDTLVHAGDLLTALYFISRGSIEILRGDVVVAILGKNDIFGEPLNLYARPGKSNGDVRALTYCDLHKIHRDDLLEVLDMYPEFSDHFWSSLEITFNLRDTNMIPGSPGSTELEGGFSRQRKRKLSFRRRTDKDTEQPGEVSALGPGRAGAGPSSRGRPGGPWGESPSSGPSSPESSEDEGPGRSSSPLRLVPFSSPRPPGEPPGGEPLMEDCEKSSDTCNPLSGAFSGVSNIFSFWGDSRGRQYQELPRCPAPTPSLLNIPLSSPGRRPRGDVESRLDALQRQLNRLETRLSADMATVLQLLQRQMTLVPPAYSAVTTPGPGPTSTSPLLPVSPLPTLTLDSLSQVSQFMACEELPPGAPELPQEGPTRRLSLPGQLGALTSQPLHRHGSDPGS
assay.procedure: primary screen, population patch clamp on CHO cells stably expressing hERG; higher = less effect of the substance
The whole screen tested about 310,000 compounds, of which about 14,000 (4.5%) showed an effect of 50% or more. Effects have a minus sign here. The sample as a whole holds a higher share of strong results than the screen did.
Each entry below lists one item and its recorded hERG current change (%, negative = inhibition) at 10uM value.
Just the number please, in %, no unit attached.

Below, each entry is followed by its recorded hERG current change (%, negative = inhibition) at 10uM result.
Measured hERG current change (%, negative = inhibition) at 10uM of COc1cc(C(CC(=O)Nc2ccccn2)N2Cc3ccccc3C2=O)cc(OC)c1OC (centres unmarked) : -11.5

Measured hERG current change (%, negative = inhibition) at 10uM of `N#Cc1ccc(CSc2nnc(-c3ccccn3)n2-c2ccc(Cl)cc2)cc1` : -51.8

Measured hERG current change (%, negative = inhibition) at 10uM of `CCN(CC)S(=O)(=O)c1ccc(N2CCOCC2)c(NS(=O)(=O)c2ccc(C(C)C)cc2)c1` : -6.87

More entries:
Measured hERG current change (%, negative = inhibition) at 10uM of `COc1ccc(-n2c(SCC(=O)OC(C)C)nnc2-c2ccccn2)cc1` : -14.4

Measured hERG current change (%, negative = inhibition) at 10uM of `O=C(COC(=O)Cc1cn2ccsc2n1)NCc1ccc2c(c1)OCO2` : -15.2
